Tested on: UniProt:P61088
Assay info: analogue potency against UBC13 ubiquitin chains – biochemical, TR-FRET, SAR follow-up (AID 504687)
Experimental setup: UBC13 polyubiquitin formation
Activity calls are given as the source filed them. No rule for the calls is given here.
Pick from true (1) for active, false (0) for inactive when you respond.

The following compounds have reported results that may help.
O=C1c2cccc3cccc(c23)C(=O)N1CC1CCN(CC(O)COc2ccc3ccccc3c2)CC1 (stereo not drawn) :: true (1)
O=C(NCCCN1CCN(c2ccc(F)cc2)CC1)C1CCCN(c2ncnc3c2nc2n3CCCCC2)C1 (stereo not drawn) :: true (1)
NNC(=O)c1ccc(CN2C(=O)c3cccc4cccc2c34)cc1 :: true (1)
Cc1ccccc1CN1CCC(CNC(=O)C2CCCN(c3ncnc4c3nc3n4CCCCC3)C2)CC1 (stereo not drawn) :: true (1)
CC(NC(=O)CCCCCN1C(=O)c2cccc([N+](=O)[O-])c2C1=O)c1ccccc1 (stereo not drawn) :: false (0)

Outcome logged for Cc1ccc(C)c(OCC(O)CN2CCN(CCN3C(=O)c4cccc5cccc(c45)C3=O)CC2)c1 (stereo not drawn) in this assay:
true (1)

// param item: Cc1ccc(C)c(CN2CCC(CNC(=O)C3CCCN(c4ncnc5c4nc4n5CCCCC4)C3)CC2)c1 (stereo not drawn) ; yields the recorded call
true (1)

// return assay outcome for COc1ccc(CCNC(=O)CCCCCN2C(=O)c3ccccc3C2=O)cc1
false (0)

Called result for O=C(CCCCCN1C(=O)c2ccccc2C1=O)Nc1ccc(S(=O)(=O)Nc2ncccn2)cc1
false (0)

Name the outcome recorded for CC(=O)c1ccc(OCC(O)CN2CCN(CCN3C(=O)c4cccc5cccc(c45)C3=O)CC2)cc1 (stereo not drawn) in the assay.
true (1)

###

Tested on: Ubiquitin-conjugating enzyme E2 N (Homo sapiens) (UniProt P61088)
Sequence (P61088 whole entry, looked up): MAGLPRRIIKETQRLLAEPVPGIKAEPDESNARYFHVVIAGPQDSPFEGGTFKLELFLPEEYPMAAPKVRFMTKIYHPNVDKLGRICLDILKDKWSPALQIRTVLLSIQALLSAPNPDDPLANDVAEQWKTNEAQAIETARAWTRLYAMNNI
Assay info: analogue potency against UBC13 ubiquitin chains – biochemical, TR-FRET, SAR follow-up (AID 504687)
Experimental setup: UBC13 polyubiquitin formation
Activity calls are given as the source filed them. The rule behind the calls is not given here.
Please state which outcome applies, choosing from active, inactive

CN(C)CCCN(C(=O)c1ccc(S(=O)(=O)N(C)Cc2ccccc2)cc1)c1nc2cc3c(cc2s1)OCO3 :: active

Recorded test call requested for CCOc1cccc2sc(N(CCCN(C)C)C(=O)c3ccc(S(=O)(=O)N(CC)Cc4ccccc4)cc3)nc12
active

Query: recorded result category for CCOc1ccc(NC(=O)Cn2c(=O)n(CCCC(=O)NC3CCN(Cc4ccccc4)CC3)c(=O)c3ccccc32)cc1 in this test
active

So what was the verdict on COc1ccc2sc(N(CCCN(C)C)C(=O)c3ccc(S(=O)(=O)N4CCc5ccccc5C4)cc3)nc2c1 in this test?
active

Hey, what did the test say about O=C(NCC1CCN(Cc2ccccc2F)CC1)C1CCCN(c2ncnc3c2nc2n3CCCCC2)C1 (stereo unspecified) ?
active

What did the test return for O=C(NCC1CCN(Cc2cccc(Cl)c2)CC1)C1CCCN(c2ncnc3c2nc2n3CCCCC2)C1 (stereo unspecified) ?
active

Just curious, what result did COc1cccc(NC(=O)CCCCCN2C(=O)c3cccc([N+](=O)[O-])c3C2=O)c1 get here?
inactive

So what was the verdict on COC(=O)c1ccc(OCC(O)CN2CCN(CCN3C(=O)c4cccc5cccc(c45)C3=O)CC2)cc1 (stereo unspecified) in this test?
active

I would be grateful if you could indicate the recorded call for O=C(CCCCCN1C(=O)c2ccccc2C1=O)NCc1ccccc1 .
active

So what was the verdict on COc1ccc2sc(N(CCCN(C)C)C(=O)c3ccc(S(=O)(=O)N(C)Cc4ccccc4)cc3)nc2c1 in this test?
active

# fetch the recorded call for O=C1c2cccc3cccc(c23)C(=O)N1CCN1CCN(CC(O)COc2ccc(C3CCCCC3)cc2)CC1 (stereo unspecified) here
active

###

Tested on: Ubiquitin-conjugating enzyme E2 N (Homo sapiens) (UniProt P61088)
Assay info: analogue potency against UBC13 ubiquitin chains – biochemical, TR-FRET, SAR follow-up (AID 504687)
Experimental setup: UBC13 polyubiquitin formation
Activity calls are given as the source filed them. No rule for the calls is given here.
// allowed return values: active, inactive

# count of solved cases: 6
CN(C)CCCN(C(=O)c1ccc(S(=O)(=O)N2CCCCCC2)cc1)c1nc2ccc(Br)cc2s1 :: active
COc1ccc(NC(=O)CCCCCN2C(=O)c3cccc([N+](=O)[O-])c3C2=O)cc1 :: inactive
CN(C)CCCN(C(=O)c1ccc2c(c1)CCCC2)c1nc2ccc(Cl)cc2s1 :: active
CNCc1cc(Br)c(OCC(=O)Nc2ccccc2OC)c(OC)c1 :: active
O=C(CCCCCN1C(=O)c2ccccc2C1=O)NCc1ccccn1 :: inactive
O=C(CCCCCN1C(=O)c2ccccc2C1=O)N1CCN(c2ccc([N+](=O)[O-])cc2)CC1 :: inactive

Could you please tell me the result logged for Cc1ccc2nc(N(CCCN(C)C)C(=O)c3ccc4c(c3)CCCC4)sc2c1 in this assay?
active

# outcome recorded in this test, key = CN(C)CCCN(C(=O)c1ccc(C(=O)c2ccccc2)cc1)c1nc2cc3c(cc2s1)OCCO3
active

Which result was noted for this molecule in the test: CC(C)(C)c1ccc(OCC(O)CN2CCN(CCN3C(=O)c4cccc5cccc(c45)C3=O)CC2)cc1 (centres undefined)
active

###

Tested on: Ubiquitin-conjugating enzyme E2 N (Homo sapiens)
Assay info: analogue potency against UBC13 ubiquitin chains – biochemical, TR-FRET, SAR follow-up (AID 504687)
Experimental setup: UBC13 polyubiquitin formation
Activity calls are given as the source filed them. No rule for the calls is given here.
Pick one: True for active, False for inactive

Sample answers from the record:
COc1ccc(CCNC(=O)CCCCCN2C(=O)c3ccccc3C2=O)cc1OC :: False
CN(C)CCCN(C(=O)c1ccc(S(=O)(=O)N2CCCC2)cc1)c1nc2ccc(Br)cc2s1 :: True
CC(NC(=O)CCCCCN1C(=O)c2ccccc2C1=O)c1nc(-c2ccccc2)no1 (stereo not drawn) :: True
O=C1c2cccc3cccc(c23)C(=O)N1CC1CCN(CC(O)COCc2ccc3c(c2)OCO3)CC1 (stereo not drawn) :: True
Cc1c(NC(=O)CCCN2C(=O)c3cccc4cccc(c34)C2=O)c(=O)n(-c2ccccc2)n1C :: True
O=C(CCCCCN1C(=O)c2cccc([N+](=O)[O-])c2C1=O)NCc1ccccc1 :: True
CN(CCNC(=O)C1CCN(c2ncnc3c2nc2n3CCCCC2)CC1)Cc1ccccc1 :: True
O=C(CCCCCN1C(=O)c2ccccc2C1=O)NCCc1nc2ccccc2[nH]1 :: True
Cc1[nH]c2c(Cl)c(Cl)ccc2c1CCNC(=O)CCCCCN1C(=O)c2ccccc2C1=O :: True
O=C(CCCCCN1C(=O)c2cccc3cccc(c23)C1=O)NCCO :: True

Recorded test call requested for O=C(C1CCN(c2ncnc3c2nc2n3CCCCC2)CC1)N1CCN(c2ccccc2)CC1
False

GET /call?item= O=C(CCCCCN1C(=O)c2ccccc2C1=O)NCc1ccco1 returns the recorded outcome of this test.
True

Which outcome did this test record for the compound CN1CCN(CCCNC(=O)c2ccc(/C=C3\Oc4ccccc4N(Cc4ccc(Cl)cc4)C3=O)cc2)CC1 ?
True

Recorded test call requested for CN(C)CCCn1c(SCC(=O)Nc2nc(-c3cccc(Br)c3)cs2)nc2ccccc2c1=O
True

GET /call?item= O=C(C1CCN(c2ncnc3c2nc2n3CCCCC2)CC1)N1CCC(Cc2ccccc2)CC1 returns the recorded outcome of this test.
True

Tell me the assay call for COc1ccc(C)c2sc(N(CCCN(C)C)C(=O)c3ccc(S(=O)(=O)N(C)C)cc3)nc12 please.
True

Outcome? O=C(NCC1CCN(Cc2ccc(F)cc2)CC1)C1CCCN(c2ncnc3c2nc2n3CCCCC2)C1 (stereo not drawn)
True

Could you please tell me the result logged for COc1ccc(C(=O)Nn2c(C)nc3ccccc3c2=O)cc1 in this assay?
True

How was CCOc1cccc2sc(N(CCCN(C)C)C(=O)c3ccc(S(=O)(=O)N4CCc5ccccc5C4)cc3)nc12 classified in this test?
True

###

Tested on: Ubiquitin-conjugating enzyme E2 N (Homo sapiens) (UniProt P61088)
Assay info: analogue potency against UBC13 ubiquitin chains – biochemical, TR-FRET, SAR follow-up (AID 504687)
Experimental setup: UBC13 polyubiquitin formation
Calls of active or inactive are those of the source. The rule behind the calls is not given here.
// allowed return values: T (active), F (inactive)

CCCN1CCN(C(=O)C2CCN(c3ncnc4c3nc3n4CCCCC3)CC2)CC1 :: T
O=C(CCCCCN1C(=O)c2ccccc2C1=O)Nc1nc(C2CC2)cs1 :: F
CCN(Cc1ccccc1)S(=O)(=O)c1ccc(C(=O)N(CCCN(C)C)c2nc3cc4c(cc3s2)OCO4)cc1 :: T
O=C(C1CCN(c2ncnc3c2nc2n3CCCCC2)CC1)N1CCOCC1 :: F
O=C(NCC1CCN(Cc2ccc(Cl)cc2)CC1)C1CCCN(c2ncnc3c2nc2n3CCCCC2)C1 (centres undefined) :: T

Outcome logged for Cc1ccc(-c2oc3ncnc(N)c3c2-c2ccc(C)cc2)cc1 in this assay:
T

For this compound, state the assay outcome: Cc1ccc(OCC(O)CN2CCN(CCN3C(=O)c4cccc5cccc(c45)C3=O)CC2)c(C)c1 (centres undefined)
T

Called result for CCN(Cc1ccccc1)S(=O)(=O)c1ccc(C(=O)N(CCCN(C)C)c2nc3cc(C)cc(C)c3s2)cc1
T

How did this test come out for Cc1cccc(OCC(O)CN2CCN(CCN3C(=O)c4cccc5cccc(c45)C3=O)CC2)c1C (centres undefined) ?
T
